assay: Chemical stability in CDCl3 after 46 days by qHNMR experiment; assay type: physicochemical; settings: read-out: Stability
measureName: remaining at 1104 h (%)
# output: bare number, implied unit %

// query Recorded remaining at 1104 h of CCC/C=C1\OC(=O)C2=C1CCC=C2 [LIGUSTILIDE] , please.
// result 78.1

----------
assay: Chemical stability in MeOH after 41 days; format: physicochemical; conditions: read-out: Stability
measureName: remaining at 984 h
Returns: string containing the numeric result and its unit.

// query Please give the measured remaining at 984 h for this compound: CCC/C=C1\OC(=O)C2=C1CCC=C2 [LIGUSTILIDE]
// result 4.4%

----------
test: Chemical stability in heaxane; EtOAc:MeOH:H2O-7 (9:1:9:1) after 41 days by qHNMR experiment; assay type: physicochemical; settings: hexane:EtOAc:MeOH:H2O (9:1:9:1) solvent mixture; read-out: Stability
measureName: remaining at 984 h (%)
Answer format: numeric, % implied, no suffix.

// query For CCC/C=C1\OC(=O)C2=C1CCC=C2 [LIGUSTILIDE] , what is its reported remaining at 984 h?
// result 0.8
